# IC50 per record follows
- Tested on: breast cancer cell line (MCF-7)
- assay.protocol: SRB cytotoxicity assay, breast cancer cell line
- Assay type: cell-based
- applied.conditions: Homo sapiens, MCF7, 48 h incubation, triplicate, ±SD
// note: answer is a bare numeric in µM

# count of solved cases: 6
compound	test.target	value
COc1cc(-c2oc3cc(O)c(OC)c(O)c3c(=O)c2OC)ccc1O [Compound 4]	breast cancer cell line (MCF-7)	9.3
C=C(C)[C@@H]1CC[C@]2(C)CCC[C@](C)(O)[C@H]2C1 [Compound 1, Intermedeol]	breast cancer cell line (MCF-7)	45.6
COc1ccc(-c2oc3cc(O)cc(O)c3c(=O)c2OC)cc1OC [Compound 3, 5,7-dihydroxy-3,3’,4’-trimethoxyflavone]	breast cancer cell line (MCF-7)	10.7
CC(C)(O)[C@@]1(O)CC[C@]2(C)C(C1)[C@@](C)(O)CC[C@H]2O (stereo partly drawn) [Compound 6, 1β,4β,7β, 11-tetrahydroxyeudesmane]	breast cancer cell line (MCF-7)	33.2
C=C1CCC[C@]2(C)CCC(C(C)(C)O)C[C@@]12OO (stereo partly drawn) [Compound 2, 5α-hydroperoxy-β-eudesmol]	breast cancer cell line (MCF-7)	41.5
C=C(C)[C@]1(O)CC[C@]2(C)[C@H](O)CC[C@](C)(O)[C@@H]2C1 [Compound 5, Eudesm-11,13-ene-1β,4β,7α-triol]	breast cancer cell line (MCF-7)	38.5

Query compound follows.
Please report IC50 with breast cancer cell line (MCF-7) for item COc1cccc2c1C(=O)c1c(O)c3c(c(O)c1C2=O)C[C@@](O)(C(=O)CO)C[C@@H]3O[C@H]1C[C@H](N)[C@H](O)[C@H](C)O1 [Doxorubicin, reference compound] .
4

Data origin: paper PMC7464537
